# Test system: LXRa homodimer (NR concentration 270 nM)
# assay-text: PBM binding z-score (relative to random genomic background probes); higher = stronger binding; sequences stand for … in GC…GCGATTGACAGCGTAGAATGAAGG
recorded-metric: PBM binding z-score
Number only, no unit.

# get_value(readout= PBM binding z-score, system= LXRa homodimer (NR concentration 270 nM)) for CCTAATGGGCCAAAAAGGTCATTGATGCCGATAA
3.21

# get_value(readout= PBM binding z-score, system= LXRa homodimer (NR concentration 270 nM)) for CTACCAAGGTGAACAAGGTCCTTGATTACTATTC
-0.214

# get_value(readout= PBM binding z-score, system= LXRa homodimer (NR concentration 270 nM)) for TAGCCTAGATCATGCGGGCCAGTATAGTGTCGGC
-1.04

# get_value(readout= PBM binding z-score, system= LXRa homodimer (NR concentration 270 nM)) for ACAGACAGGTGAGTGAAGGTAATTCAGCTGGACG
-0.0483

# get_value(readout= PBM binding z-score, system= LXRa homodimer (NR concentration 270 nM)) for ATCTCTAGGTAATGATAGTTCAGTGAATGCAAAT
0.99

# get_value(readout= PBM binding z-score, system= LXRa homodimer (NR concentration 270 nM)) for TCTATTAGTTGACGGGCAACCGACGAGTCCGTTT
0.073

# get_value(readout= PBM binding z-score, system= LXRa homodimer (NR concentration 270 nM)) for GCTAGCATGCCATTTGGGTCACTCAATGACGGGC
-0.46

# get_value(readout= PBM binding z-score, system= LXRa homodimer (NR concentration 270 nM)) for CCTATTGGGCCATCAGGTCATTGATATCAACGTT
1.09

# get_value(readout= PBM binding z-score, system= LXRa homodimer (NR concentration 270 nM)) for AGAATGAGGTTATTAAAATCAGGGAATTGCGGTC
0.0738

# get_value(readout= PBM binding z-score, system= LXRa homodimer (NR concentration 270 nM)) for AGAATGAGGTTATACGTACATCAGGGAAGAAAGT
0.00405

# get_value(readout= PBM binding z-score, system= LXRa homodimer (NR concentration 270 nM)) for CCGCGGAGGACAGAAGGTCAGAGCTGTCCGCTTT
-0.1

# get_value(readout= PBM binding z-score, system= LXRa homodimer (NR concentration 270 nM)) for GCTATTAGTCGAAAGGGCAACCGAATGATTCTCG
0.214

# get_value(readout= PBM binding z-score, system= LXRa homodimer (NR concentration 270 nM)) for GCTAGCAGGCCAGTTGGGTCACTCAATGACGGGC
-0.976

# get_value(readout= PBM binding z-score, system= LXRa homodimer (NR concentration 270 nM)) for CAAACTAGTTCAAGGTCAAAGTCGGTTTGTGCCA
6.22

# get_value(readout= PBM binding z-score, system= LXRa homodimer (NR concentration 270 nM)) for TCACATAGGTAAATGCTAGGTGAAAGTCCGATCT
-0.036

# get_value(readout= PBM binding z-score, system= LXRa homodimer (NR concentration 270 nM)) for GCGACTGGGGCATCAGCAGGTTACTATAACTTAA
-0.448

# get_value(readout= PBM binding z-score, system= LXRa homodimer (NR concentration 270 nM)) for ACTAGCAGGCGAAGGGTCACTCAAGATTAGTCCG
0.132

# get_value(readout= PBM binding z-score, system= LXRa homodimer (NR concentration 270 nM)) for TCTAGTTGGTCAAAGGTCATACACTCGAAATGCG
4.66

# get_value(readout= PBM binding z-score, system= LXRa homodimer (NR concentration 270 nM)) for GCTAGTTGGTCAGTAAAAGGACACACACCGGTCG
0.213

# get_value(readout= PBM binding z-score, system= LXRa homodimer (NR concentration 270 nM)) for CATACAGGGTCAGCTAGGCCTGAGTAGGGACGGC
-0.384

# get_value(readout= PBM binding z-score, system= LXRa homodimer (NR concentration 270 nM)) for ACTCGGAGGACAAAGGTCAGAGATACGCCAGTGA
1.83

# get_value(readout= PBM binding z-score, system= LXRa homodimer (NR concentration 270 nM)) for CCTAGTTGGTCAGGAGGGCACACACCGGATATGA
0.0656

# get_value(readout= PBM binding z-score, system= LXRa homodimer (NR concentration 270 nM)) for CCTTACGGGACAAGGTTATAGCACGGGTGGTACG
-0.25

# get_value(readout= PBM binding z-score, system= LXRa homodimer (NR concentration 270 nM)) for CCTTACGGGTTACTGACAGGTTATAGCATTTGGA
0.282

# get_value(readout= PBM binding z-score, system= LXRa homodimer (NR concentration 270 nM)) for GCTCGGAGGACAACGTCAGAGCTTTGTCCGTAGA
-1

# get_value(readout= PBM binding z-score, system= LXRa homodimer (NR concentration 270 nM)) for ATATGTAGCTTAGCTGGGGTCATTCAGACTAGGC
1.49
